Provide the reported growth inhibition of each item.
ASSAY NOTES: NCI Yeast Anticancer Drug Screen. Data for the mlh1 rad18 strain (AID 175)
ASSAY CONDITIONS: S. cerevisiae mlh1 rad18 strain growth inhibition; at 50.0 µM; active compounds read high
The panel holds about 79,000 compounds, 15% with a hit somewhere; the sample as a whole holds those more often.
Numbers only, in %.

Cc1cc(Cl)ccc1NC(=O)/C(Cl)=C(/Cl)C(=O)O: 99.3
O=[N+]([O-])c1cc[n+]([O-])c(Cl)c1: 99.5
Cc1c2c(nc3ccccc13)C(=O)c1cccnc1C2=O: 84

Please report growth inhibition for every entry that follows.
1. O=C(Nc1ccc(Cl)cc1)c1cc2cc(N=Nc3ccccc3Cl)ccc2oc1=O
2. Cc1c2cc[n+](CCO)cc2c(C)c2c1[nH]c1ccc(O)cc12
3. CCCCCCC=C(C(=O)OCC)C(=O)OCC
4. O=C1SS(=O)c2ccccc21 (stereo unspecified)
5. O=C(NCCNCCNC(=O)c1cc(-c2ccccc2)nc2ccccc12)c1cc(-c2ccccc2)nc2ccccc12

[85.4, 72.6, 76.3, 0, 50.6]

----------
ASSAY NOTES: NCI Yeast Anticancer Drug Screen. Data for the rad52 strain (AID 147);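 note: 0% = growth of vehicle-treated control cultures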
ASSAY CONDITIONS: S. cerevisiae rad52 mutant growth inhibition; at 11.0 µM; active compounds read high
Compounds without any hit were thinned out: in the full panel of roughly 79,000, 15% have a hit.
Respond with Yes for growth inhibition values of 50% and above, No for values below.

Examples from the recorded data:
CCOP(=O)(OCC)/C(C#N)=C\c1cccc2ccccc12: No
S=C(NCc1ccccn1)N/N=C/c1ccccn1: Yes
CCC1(O)C(=O)OCc2c1cc1n(c2=O)Cc2cc3c(N)cccc3nc2-1 (stereo unspecified): Yes
Nc1cc2c(cc1N)-c1ccccc1C2=O: No

Check this compound for growth inhibition at or above 50%: CC(C)(CN1CCCCC1)C(=O)/C=C/c1c(Cl)cccc1Cl
Yes

Check this compound for growth inhibition at or above 50%: CC1=CC(=C(c2ccc(N)c(C)c2)c2ccc(N)c(C)c2)C=CC1=N
No

----------
Provide the reported growth inhibition of each item.
ASSAY NOTES: NCI Yeast Anticancer Drug Screen. Data for the rad50EPP+ strain (AID 151);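 note: 0% = growth of vehicle-treated control cultures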
ASSAY CONDITIONS: S. cerevisiae rad50 mutant strain, at 1.2 µM, active compounds read high
Compounds without any hit were thinned out: in the full panel of roughly 79,000, 15% have a hit. The source made the active and inactive calls. Rule as the data show it: active = growth inhibition above about 70%; inactive = the rest.

Here's what some known entries look like.
COC(=O)c1ccccc1N=NNc1cccc(SC)c1: 9% (inactive)
CC1(C)CC(=O)C(C(=O)Nc2cccs2)=C(O)C1: -56% (inactive)
Cc1ccccc1NC(=O)c1c(C)oc2c1C(=O)c1ccccc1C2=O: -8% (inactive)
NC(N)=NS(=O)(=O)c1ccc(Nc2c3ccccc3nc3c(C(=O)NC(CO)(CO)CO)cccc23)cc1: 1% (inactive)
COC(=N)c1ccc(O)c(C)c1: -1% (inactive)

Proceed to the following item.
Please fill in: growth inhibition reported for CCO/C=C1\SC(=S)N(c2ccc(OCC)cc2)C1=O = -38% (inactive)

----------
ASSAY NOTES: NCI Yeast Anticancer Drug Screen. Data for the rad18 strain (AID 177)
ASSAY CONDITIONS: S. cerevisiae rad18 mutant growth inhibition; at 100.0 µM; active compounds read high
The panel holds about 79,000 compounds, 15% with a hit somewhere; the sample as a whole holds those more often. Active and inactive are the calls of the source. Rule as the data show it: active = growth inhibition above about 70%; inactive = the rest.
TEST READOUT: growth inhibition

Here's what some known entries look like.
NCCCSc1ccccc1: -1% (inactive)
O=C(/N=N/C(=O)Oc1ccccc1)Oc1ccccc1: 45% (inactive)

Please report growth inhibition for every entry that follows.
1. Cc1ccc([N+](=O)[O-])c2c(NCCC[N+](C)(C)[O-])c3ccccc3nc12
2. O=C(C#Cc1ccccc1)/C=C/c1ccccc1

94% (active)
95% (active)

Please report growth inhibition for every entry that follows.
1. O=C(Nn1c(-c2ccccc2)nc2ccccc2c1=O)c1ccc(CS)cc1
2. Cc1cccc2c(NCCCN(C)C)c3c([N+](=O)[O-])ccc(C)c3nc12
3. COC(=N)c1ccc(O)c(C)c1

1. 98% (active)
2. 96% (active)
3. 8% (inactive)

Please report growth inhibition for every entry that follows.
1. CC(C)(Br)C(=O)/C=C/c1ccccc1
2. CCCCCCNCCCNc1c2ccccc2nc2cccc([N+](=O)[O-])c12
3. O=C(O)CNC(c1ccccc1)(c1ccccc1)c1ccccc1
4. NC(CCCCCCCCCCCCC(N)C(=O)c1ccccc1)C(=O)c1ccccc1 (centres undefined)
5. O=[N+]([O-])c1ccc(C(c2c[nH]c3ccccc23)c2c[nH]c3ccccc23)cc1

["97% (active)", "95% (active)", "97% (active)", "96% (active)", "86% (active)"]

Please report growth inhibition for every entry that follows.
1. COc1ccc2nc3cccc([N+](=O)[O-])c3c(NCCCCCC(=O)O)c2c1
2. O=P(C(=S)Nc1c(Cl)cccc1Cl)(c1ccccc1)c1ccccc1
3. OC(CC(O)(C(F)(F)F)C(F)(F)F)c1ccc(C(O)CC(O)(C(F)(F)F)C(F)(F)F)cc1 (centres undefined)
4. COC1=CCC23C(=O)C=CC(=O)C2(C1)C(=O)c1ccccc1C3=O (centres undefined)
5. Cc1ccc(Nc2n[nH]c(=S)s2)c(C)c1
6. COc1ccc(C(=O)/C=C\c2ccc(Cl)c(Cl)c2)cc1

["98% (active)", "96% (active)", "97% (active)", "83% (active)", "93% (active)", "52% (inactive)"]

Please report growth inhibition for every entry that follows.
1. CCOC(=S)SSSC(=S)OCC
2. CCN1CCC(O)(c2ccc(Oc3ccc(Cl)cc3)cc2)C(C(=O)c2ccc(Oc3ccc(Cl)cc3)cc2)C1 (centres undefined)
3. CCCCCCCC/C=C\CCCCCCCCN

1. 99% (active)
2. 7% (inactive)
3. 97% (active)

Please report growth inhibition for every entry that follows.
1. CC(C)C(=O)CC(Sc1ccc(N)cc1)c1ccccc1 (centres undefined)
2. OB(O)c1ccccc1C#Cc1ccccc1
3. O=C(NNc1ccccc1)C(CCCCNS(=O)(=O)Cc1ccccc1)NS(=O)(=O)Cc1ccccc1 (centres undefined)

52% (inactive)
54% (inactive)
50% (inactive)

----------
ASSAY NOTES: NCI Yeast Anticancer Drug Screen. Data for the bub3 strain (AID 167)
ASSAY CONDITIONS: S. cerevisiae bub3 mutant strain, at 100.0 µM, active compounds read high
About 79,000 compounds went through this panel and 15% of them were active in at least one assay; those are over-represented in the sample as a whole.
TEST READOUT: growth inhibition (%)
Give bare numbers, in %.

Here's what some known entries look like.
NCCCSc1ccccc1: -4
O=C(c1ccccc1)[C@H]1Nc2ccc(Cl)cc2[C@H]2OCCC[C@@H]12: 95
CCCCCCCN(CCCCCCC)CC(=O)c1ccc2cc(Cl)c3ccccc3c2c1: 94
O=C(CN(c1ccccc1)c1ccccc1)n1nnc2ccccc21: 76
CC(C)OP(=O)(OC(C)C)C(=NCCO)NNc1ccc([N+](=O)[O-])cc1: 95
CC(C)[Si]1(C(C)C)OCC2OC(n3cnc4c(N)ncnc43)C(N)C2O[Si](C(C)C)(C(C)C)O1 (configuration not stated): 98
O=C(O)c1ccccc1C(=O)OC1CCc2ccccc2C1 (configuration not stated): 53
OC1(C#CI)CCCCC1: 99
O=c1[nH]c2c([N+](=O)[O-])cccc2c2ccccc12: 90
CCN(CC)CC(=O)c1ccc2cc(Cl)c3ccccc3c2c1: 98

Please report growth inhibition for every entry that follows.
1. CCCCCCC=C(C(=O)OCC)C(=O)OCC
2. Clc1nc(Cl)nc(Nc2cccc3ccccc23)n1

[17, 99]

----------
ASSAY NOTES: NCI Yeast Anticancer Drug Screen. Data for the wt2 strain (AID 169);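 note: 0% = growth of vehicle-treated yeast cultures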
ASSAY CONDITIONS: S. cerevisiae wt2 strain growth inhibition; at 3.7 µM; active compounds read high
This is part of a sample that, as a whole, favours compounds with a hit. Of some 79,000 tested, about 15% had one in any assay.
TEST READOUT: growth inhibition (%)
Give bare numbers, in %.

Here's what some known entries look like.
O=C(c1cc(=O)c2ccc(O)cc2o1)c1ccc(Cl)cc1Cl: -4
O=C1SS(=O)c2ccccc21 (stereo unspecified): 8
CCN(CC)CCNc1ccc2ncn3c4ccc(O)cc4c(=O)c1c23: 1
O=C1C(=O)N(c2ccccc2)[C@@]2(c3ccccc3)C(=Nc3ccccc3)OC(c3ccccc3)=C12: -5
CC(C)S(=O)(=O)/C=C\S(=O)(=O)C(C)C: 15

Proceed to the following item.
Please fill in: growth inhibition reported for CC(C)OC(=O)NNc1cccc(Cl)c1 = 13

----------
ASSAY NOTES: NCI Yeast Anticancer Drug Screen. Data for the cln2 rad14 strain (AID 165);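 note: 0% = growth equal to vehicle treated cultures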
ASSAY CONDITIONS: S. cerevisiae cln2 rad14 strain, at 50.0 µM (retest, dose inferred, filed as 5.0)
The panel holds about 79,000 compounds, 15% with a hit somewhere; the sample as a whole holds those more often. Activity calls are given as the source filed them. Rule as the data show it: active = growth inhibition above about 70%; inactive = the rest.
Choose the fitting class; nothing outside TRUE (active), FALSE (inactive) is accepted.

Examples from the recorded data:
c1ccc([P+](CCN2Cc3ccccc3C2)(c2ccccc2)c2ccccc2)cc1: FALSE
CC1(C)CC(=O)C(C(=O)Nc2cccs2)=C(O)C1: FALSE
c1ccc2nc3c(nc2c1)sc1ccccc13: FALSE
O=C(O)c1cc2c(cc1S(=O)(=O)O)C1C(C3C2C2(Cl)C(Cl)=C(Cl)C3(Cl)C2(Cl)Cl)C2(Cl)C(Cl)=C(Cl)C1(Cl)C2(Cl)Cl (centres undefined): TRUE
O=C1C2=C(c3ccccc31)C(c1ccccc1)N1C(=O)CSC1=N2 (centres undefined): FALSE
CCCCS/C(=C(/C#N)C(N)=O)c1cc2c([nH]1)CCCC2: FALSE
O=C(C#Cc1ccccc1)/C=C/c1ccccc1: FALSE
O=C(NCCCCN1CC2CCCC2C1)C(C1CCCCC1)C1CCCCC1 (centres undefined): TRUE

Returns: the outcome recorded for Clc1ccc(/C(=C\c2ccccc2)Cn2ccnc2)cc1 in this assay.
TRUE

Returns: the outcome recorded for O=c1c2ccccc2nc(-c2ccc(Cl)cc2)n1O in this assay.
TRUE

Returns: the outcome recorded for CC1(c2ccccc2)O[C@@H]2C[C@H]3[C@@H]4CCC5=CC(=O)C=C[C@]5(C)[C@@]4(F)[C@@H](O)C[C@]3(C)[C@]2(C(=O)CO)O1 (some centres undefined) in this assay.
FALSE

Returns: the outcome recorded for [N-]=[N+]=NC1(c2ccccc2)C(=O)Nc2ccccc2C1=O (centres undefined) in this assay.
FALSE

Returns: the outcome recorded for O=C1CCC(Cc2ccccc2)CN1 (centres undefined) in this assay.
FALSE
